These data points were gathered from patent US20250368742A1.

Consider the following binders and their measured Kd readings.
- target_system: T1, MICA008-ECD-HISAvi (human)
- T1 construct: Two sources under one name in the two kinetic assays; also called MICA008 polypeptide
- T1 chain: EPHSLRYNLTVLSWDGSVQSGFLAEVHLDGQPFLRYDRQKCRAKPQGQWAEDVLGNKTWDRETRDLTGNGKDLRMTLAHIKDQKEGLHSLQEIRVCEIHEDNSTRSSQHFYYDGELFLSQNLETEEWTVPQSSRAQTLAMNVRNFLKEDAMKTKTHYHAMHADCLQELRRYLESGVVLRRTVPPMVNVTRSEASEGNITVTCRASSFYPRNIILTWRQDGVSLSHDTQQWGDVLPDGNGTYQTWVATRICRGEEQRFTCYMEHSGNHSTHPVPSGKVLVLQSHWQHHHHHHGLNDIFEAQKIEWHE
- experimental_details: SPR (Carterra); antibody captured by anti-human Fc, monomeric ECD antigen injected
Give the value in nM but do not write nM after it.

3F9 (antibody, human IgG1, kappa, V domains shown, also called benchmark 3F9) VH: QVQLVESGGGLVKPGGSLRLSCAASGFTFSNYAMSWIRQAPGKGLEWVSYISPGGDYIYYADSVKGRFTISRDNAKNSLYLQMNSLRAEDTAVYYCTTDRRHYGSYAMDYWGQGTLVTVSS VL: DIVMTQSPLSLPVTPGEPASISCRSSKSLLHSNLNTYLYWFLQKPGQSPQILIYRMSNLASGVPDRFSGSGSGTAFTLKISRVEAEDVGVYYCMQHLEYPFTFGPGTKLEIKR: 2
D2M001-001 (antibody, V domains shown, only the CDRs are tied to the name in the text; copies: 2 + 2) VH: QVQLVQSGAEVKKPGSSVKVSCKASGYTFSHHSISWVRQAPGQGLEWIGGIYPGKIKTNYAQKFQGRATLTADKSTSTAYMELSSLRSEDTAVYYCATLYGNYEAYWGQGTLVTVSS VL: DIQMTQSPSSLSASVGDRVTITCRASENIYGALNWYQQKPGKSPKLLIYGTTSLQSGVPSRFSGSGSGRDYTLTISSLQPEDFATYYCQNVLTTPPWTFGGGTKVEIK: 255
13A9 (antibody, human IgG1, kappa, V domains shown) VH: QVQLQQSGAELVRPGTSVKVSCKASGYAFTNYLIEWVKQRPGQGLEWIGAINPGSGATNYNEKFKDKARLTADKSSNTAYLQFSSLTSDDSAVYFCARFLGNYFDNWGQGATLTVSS VL: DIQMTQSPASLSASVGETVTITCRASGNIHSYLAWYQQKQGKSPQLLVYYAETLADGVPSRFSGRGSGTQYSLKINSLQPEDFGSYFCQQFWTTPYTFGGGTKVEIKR: 1

Now turn to the next binder.
// 1D5 (antibody, human IgG1, kappa, V domains shown, also called ID5) VH: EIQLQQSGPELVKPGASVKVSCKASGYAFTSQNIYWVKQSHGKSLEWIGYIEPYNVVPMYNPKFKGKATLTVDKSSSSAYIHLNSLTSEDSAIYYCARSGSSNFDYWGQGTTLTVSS VL: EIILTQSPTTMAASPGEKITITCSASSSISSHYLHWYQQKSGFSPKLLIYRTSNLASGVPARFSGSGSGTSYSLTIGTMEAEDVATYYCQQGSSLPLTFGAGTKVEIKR : Kd value = 0.269
